- Study System: EGFR (UniProt P00533)
- Sequence (P00533 whole entry, looked up): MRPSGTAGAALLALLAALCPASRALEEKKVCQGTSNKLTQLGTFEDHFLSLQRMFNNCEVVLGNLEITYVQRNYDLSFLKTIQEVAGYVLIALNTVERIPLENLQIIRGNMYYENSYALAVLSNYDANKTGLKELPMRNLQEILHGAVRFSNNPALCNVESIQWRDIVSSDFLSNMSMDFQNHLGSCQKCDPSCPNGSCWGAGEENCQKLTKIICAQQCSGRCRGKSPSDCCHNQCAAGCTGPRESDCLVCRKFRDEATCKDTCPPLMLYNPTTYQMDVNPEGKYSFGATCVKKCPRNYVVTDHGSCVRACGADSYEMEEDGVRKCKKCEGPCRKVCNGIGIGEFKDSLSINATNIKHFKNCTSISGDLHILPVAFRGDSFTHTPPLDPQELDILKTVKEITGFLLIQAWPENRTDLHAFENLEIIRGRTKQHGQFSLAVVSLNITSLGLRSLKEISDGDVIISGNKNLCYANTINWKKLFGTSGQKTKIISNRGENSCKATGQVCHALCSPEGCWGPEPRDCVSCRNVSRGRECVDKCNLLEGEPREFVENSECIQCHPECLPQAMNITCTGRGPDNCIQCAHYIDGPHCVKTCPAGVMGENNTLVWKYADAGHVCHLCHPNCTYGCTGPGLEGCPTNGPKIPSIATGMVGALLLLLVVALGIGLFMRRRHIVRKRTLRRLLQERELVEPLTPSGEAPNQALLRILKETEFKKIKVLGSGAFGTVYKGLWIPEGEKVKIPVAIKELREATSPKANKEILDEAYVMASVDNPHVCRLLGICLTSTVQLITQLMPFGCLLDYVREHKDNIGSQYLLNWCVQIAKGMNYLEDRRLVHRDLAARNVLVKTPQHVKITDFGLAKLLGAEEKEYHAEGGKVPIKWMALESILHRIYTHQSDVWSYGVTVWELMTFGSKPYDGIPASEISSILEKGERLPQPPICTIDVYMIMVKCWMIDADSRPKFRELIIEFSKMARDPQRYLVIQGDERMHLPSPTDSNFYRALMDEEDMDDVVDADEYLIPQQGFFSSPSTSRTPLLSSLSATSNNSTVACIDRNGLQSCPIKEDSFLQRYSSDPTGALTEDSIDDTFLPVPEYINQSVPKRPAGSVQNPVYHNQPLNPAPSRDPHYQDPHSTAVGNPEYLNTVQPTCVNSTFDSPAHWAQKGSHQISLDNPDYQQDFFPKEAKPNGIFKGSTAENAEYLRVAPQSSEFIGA
Observation Type: IC50

Form field: reported IC50 of O=c1cc(-c2ccc(O)cc2)oc2cc(O)cc(O)c12
25 µM

Form field: reported IC50 of CN(C)Cc1coc2ccccc2c1=O
> 100 µM

Form field: reported IC50 of O=c1cc(-c2ccccc2)oc2ccccc12
50 µM

Form field: reported IC50 of O=C(O)C(=O)Nc1csc2ccccc2c1=O
> 100 µM

Form field: reported IC50 of COC(=O)C(=O)Nc1csc2ccccc2c1=O
> 100 µM

Form field: reported IC50 of CCNC(=O)Nc1csc2ccccc2c1=O
> 100 µM

Form field: reported IC50 of CNC(=O)Nc1coc2ccccc2c1=O
> 100 µM
